- System: E34 (patient-derived glioblastoma stem cells of proneural subtype);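 further: cell Painting imaging in 384-well plates, CellProfiler features reduced to at least 20 principal components, Euclidean distance versus same-plate DMSO vehicle wells (0.1% v/v), median over six images per well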
- assay-info: phenotypic distance (Euclidean, principal components) from DMSO controls (arbitrary units); higher = stronger morphological change
- condition-set: 4.1 nM; exposure time: 72 h
Counter-ions that a name gives are not always drawn.
measurement-kind: phenotypic distance
API note: the answer field is a bare number with no unit suffix.

Query: Specify phenotypic distance for `CCN1CCN(C(=O)Cc2ccc(Nc3ncc(F)c(Nc4ccc(C(=O)Nc5ccccc5Cl)cc4)n3)cc2)CC1` and stop.
Result: 0.739

Query: Specify phenotypic distance for `COC(=O)Nc1nc2cc(C(=O)c3ccc(F)cc3)ccc2[nH]1` and stop.
Result: 0.541

Query: Specify phenotypic distance for N=C(N)c1ccc(-c2ccc(-c3ccc(C(=N)N)cc3)o2)cc1 [Furamidine dihydrochloride] and stop.
Result: 0.516

Query: Specify phenotypic distance for `C[C@H]1Oc2cc(cnc2N)-c2c(nn(C)c2C#N)CN(C)C(=O)c2ccc(F)cc21` and stop.
Result: 0.575

Query: Specify phenotypic distance for CC(C)(Oc1ccc(C2CC2(Cl)Cl)cc1)C(=O)O (stereo not drawn) [Ciprofibrate] and stop.
Result: 0.978

Query: Specify phenotypic distance for N=c1ccn2c(n1)O[C@H]1[C@H](O)[C@@H](CO)O[C@H]12 [Ancitabine hydrochloride] and stop.
Result: 1.44

Query: Specify phenotypic distance for `COc1cc2c(c(OC)c1OC)-c1ccc(OC)c(=O)cc1[C@@H](NC(C)=O)CC2` and stop.
Result: 3.32

Query: Specify phenotypic distance for `CN(C(=O)CN(CCO)CC(=O)N(C)C(C)(C)Cc1ccccc1)C(C)(C)Cc1ccccc1` and stop.
Result: 0.701
